Reported survival values follow for various molecules
- Test system: DeltatarO mutant
- measurement_protocol: S. aureus survival, RN4220 and DeltatarO strains – OD600, teichoic acid synthesis inhibitors, primary screen (AID 463173)
- condition_parameters: S. aureus RN4220 wild type/DeltatarO growth, OD600, 18 h, active compounds read low, screened at 18.75 µg/mL (by protocol)
About 4,300 (8.3%) of roughly 52,000 compounds were called active. This excerpt belongs to a sample that is enriched for actives.

Cc1ccc(Nc2c(-c3ccc(C)s3)nc3ncccn23)cc1	9% (active)
COc1ccc(-c2cc(C(F)(F)F)nc(SCCC(=O)Nc3ccc(NC(C)=O)cc3)n2)cc1	61% (inactive)
Cc1ccc(NC(=O)Cn2c(=O)n(-c3ccccc3)c(=O)c3ccc(C(=O)NCc4ccc5c(c4)OCO5)cc32)cc1	114% (inactive)
Cc1ccc(NC(=O)CCc2nc3cccnc3n2-c2ccccc2)cc1	80% (inactive)
O=C(CSc1nnc(-c2cccc(F)c2)c(-c2cccc(F)c2)n1)NC1CCCCC1	73% (inactive)
Cc1nn(CC(=O)Nc2ccccc2C(F)(F)F)c(=O)c2cccn12	93% (inactive)
Cc1ccc(Nc2c(-c3ccc(N4CCOCC4)cc3)nc3ncccn23)cc1	139% (inactive)
Cc1cc(Nc2ccccc2O)nc(C)n1	67% (inactive)

Qu. GET survival where system = DeltatarO mutant and item = Cc1ccc(S(=O)(=O)N(CC(O)Cn2c3ccccc3c3ccccc32)c2cccc(C(=O)NCCO)c2)cc1 (stereo unspecified)
Ans. 56% (inactive)

Qu. GET survival where system = DeltatarO mutant and item = "Cc1nn(-c2ccc(N3CCCC3)nn2)c(C)c1CCC(=O)NCc1ccccc1F"
Ans. 82% (inactive)

Qu. GET survival where system = DeltatarO mutant and item = "Cc1ccccc1Nc1c(-c2ccc(N3CCOCC3)cc2)nc2ccccn12"
Ans. 41% (active)

Qu. GET survival where system = DeltatarO mutant and item = "Cc1ccc(NC(=O)CCc2nc3cccnc3n2-c2ccccc2)cc1Cl"
Ans. 64% (inactive)

Qu. GET survival where system = DeltatarO mutant and item = "COc1ccccc1OCCn1c(-c2ccc(Cl)cc2)nc2ccccc2c1=O"
Ans. 77% (inactive)

Qu. GET survival where system = DeltatarO mutant and item = "Cc1c(NS(=O)(=O)c2cccc(C(=O)O)c2)c(=O)n(-c2ccccc2)n1C"
Ans. 67% (inactive)

Qu. GET survival where system = DeltatarO mutant and item = Cc1ccc(S(=O)(=O)N(CC(O)Cn2c3ccccc3c3ccccc32)c2cccc(C(N)=O)c2)cc1 (stereo unspecified)
Ans. 38% (active)
